- Tested on: 429239-143-T-J1-PDC complex spheroid viability;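 further: luminescence signal used as surrogate measure of viable cells; spheroids exposed to compounds for seven days before readout; 100% = DMSO vehicle control viability as luminescence relative to vehicle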
- PROTOCOL_DETAILS: Anticancer human tumor 429239-143-T-J1-PDC patient-derived small cell lung carcinoma cell line growth inhibition [POLQ]
- CONDITION_LABEL: second compound 3.16 µM; first compound 0.1 µM; active compounds read low
PROPERTY: viability, T/C (%)
Number only, in %; omit the unit.

Ask | Could you please provide reported viability, T/C for Nc1ccn(C2OC(CO)C(O)C2(F)F)c(=O)n1 (stereo not given) + COC1C(OC(N)=O)C(O)C(Oc2ccc3c(O)c(NC(=O)c4ccc(O)c(CC=C(C)C)c4)c(=O)oc3c2C)OC1(C)C ? Thanks!
Reply | 13.9

Ask | Retrieve viability, T/C measured for Nc1ccn(C2OC(CO)C(O)C2(F)F)c(=O)n1 (stereo not given) + Cc1cccc(N(C)C(=O)C2C(O)CCN2c2nc(C)cc(C(F)(F)F)c2C#N)c1 and print it.
Reply | 17.2

Ask | Give me measured viability, T/C, please, for this compound: CCc1cc2c(N3CCc4c(cc(Cn5ccnc5)cc4-c4cn(C)nc4C(F)(F)F)C3=O)ccnc2c(OC)n1 + Cc1cccc(N(C)C(=O)C2C(O)CCN2c2nc(C)cc(C(F)(F)F)c2C#N)c1
Reply | 108

Ask | Tell me measured viability, T/C for COc1cc(C2c3cc4c(cc3C(OC3OC5COC(C)OC5C(O)C3O)C3COC(=O)C23)OCO4)cc(OC)c1O (stereo not given) + Cc1cccc(N(C)C(=O)C2C(O)CCN2c2nc(C)cc(C(F)(F)F)c2C#N)c1 please.
Reply | 77.4

Ask | Retrieve viability, T/C measured for O=C(c1cc(Cc2n[nH]c(=O)c3ccccc23)ccc1F)N1CCN(C(=O)C2CC2)CC1 + COC1C(OC(N)=O)C(O)C(Oc2ccc3c(O)c(NC(=O)c4ccc(O)c(CC=C(C)C)c4)c(=O)oc3c2C)OC1(C)C and print it.
Reply | 86.5
